B1: C2CD2L (parent)
chain: LTLKVLRSSSCGDTELLGQATLPV

- Variants of: B1
- Assay: protein stability index of a GFP-peptide fusion (GPS, HEK-293T) (PSI 1-6); higher = more stable;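 further: lentivirally expressed fusions sorted by FACS into six bins by GFP to DsRed ratio, PSI derived from sequencing read proportions per bin multiplied by bin number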
- Condition Summary: c terminus: a fixed tail appended

Variant Code	protein stability index
L6A	3.16
G18H	1.43
S10P	2.45
G18P	2.11
L17W	2.04
T21M	2.27
L6I	2.83
L1A	4.09
V5L	2.75
A20K	3.04
L6T	1.26
